This collection of values is drawn from ChEMBL document CHEMBL1201862.

Listing: AC50 of selected compounds
target: CAAX prenyl protease 2 (Saccharomyces cerevisiae S288c, UniProt Q03530); type: biochemical
Sequence (Q03530 whole entry): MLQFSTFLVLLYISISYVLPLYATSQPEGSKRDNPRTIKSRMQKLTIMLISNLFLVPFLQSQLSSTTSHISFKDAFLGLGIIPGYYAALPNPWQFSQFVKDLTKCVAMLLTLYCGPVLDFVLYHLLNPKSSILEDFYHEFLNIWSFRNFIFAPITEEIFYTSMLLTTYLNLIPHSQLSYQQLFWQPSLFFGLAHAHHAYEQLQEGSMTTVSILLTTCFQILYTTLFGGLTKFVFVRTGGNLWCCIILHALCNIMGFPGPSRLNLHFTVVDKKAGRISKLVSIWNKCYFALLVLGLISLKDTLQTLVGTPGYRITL
Activity calls are given as the source filed them.

Prompt: Bench note: what AC50 did `CC(/C=N\NC(=O)CN1CCN(S(=O)(=O)c2ccc(C)cc2)CC1)=C\c1ccccc1` show?
Completion: 4.3 µM (active)

Prompt: Bench note: what AC50 did `O=c1c(-c2ccccc2)c(O)c2ccccc2n1-c1ccccc1` show?
Completion: 5.31 µM (active)

Prompt: Bench note: what AC50 did `CCc1ccc(Nc2n[n+](-c3ccccc3)c(/C=C/c3ccccc3)s2)cc1` show?
Completion: 0.634 µM (active)

Prompt: Bench note: what AC50 did `Nc1nonc1-n1nnc(C(=O)N/N=C/c2cccc(Cl)c2)c1CSc1ccc(Cl)cc1` show?
Completion: 0.136 µM (active)

###

Listing: IC50 of selected compounds
target: Alkaline phosphatase, tissue-nonspecific isozyme (Homo sapiens, UniProt P05186); test: potency against alkaline phosphatase TNAP – biochemical, luminescent, dose response, SAR follow-up (AID 1056)
Sequence (P05186 whole entry): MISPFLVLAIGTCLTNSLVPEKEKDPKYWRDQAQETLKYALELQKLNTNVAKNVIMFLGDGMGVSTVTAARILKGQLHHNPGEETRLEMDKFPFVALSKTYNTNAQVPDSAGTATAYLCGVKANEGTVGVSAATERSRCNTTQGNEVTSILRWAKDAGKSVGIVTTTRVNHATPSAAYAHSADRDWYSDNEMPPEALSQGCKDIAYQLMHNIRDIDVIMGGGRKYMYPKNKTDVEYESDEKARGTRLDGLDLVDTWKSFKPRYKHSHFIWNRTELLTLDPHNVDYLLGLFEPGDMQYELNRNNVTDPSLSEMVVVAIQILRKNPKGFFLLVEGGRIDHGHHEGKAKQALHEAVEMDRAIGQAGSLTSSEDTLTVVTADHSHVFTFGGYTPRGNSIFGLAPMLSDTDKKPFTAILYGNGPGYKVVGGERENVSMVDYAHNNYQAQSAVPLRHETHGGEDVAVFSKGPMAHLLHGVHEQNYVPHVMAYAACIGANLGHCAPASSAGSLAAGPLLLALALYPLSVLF
The source made the active and inactive calls.

For orientation, consider the following solved cases.
smiles	result
COc1ccccc1C(=O)Nc1ccc2ccccc2c1	> 10 µM (inactive)
Cc1ccc(-c2cc(C(=O)O)[nH]n2)c(C)c1	3.34 µM (active)
O=S(=O)(Nc1ccc2ncccc2c1)c1cc(Cl)ccc1Cl	> 100 µM (inactive)

Could you now look at the following compound, please?
Prompt: Lookup: IC50 / Alkaline phosphatase, tissue-nonspecific isozyme (Homo sapiens, UniProt P05186) / `CCOC(=O)c1cc(-c2ccc(Cl)cc2)n[nH]1`
Completion: 2.35 µM (active)

###

target: Cytochrome P450 2C9 (Homo sapiens, UniProt P11712)
Sequence (P11712 whole entry): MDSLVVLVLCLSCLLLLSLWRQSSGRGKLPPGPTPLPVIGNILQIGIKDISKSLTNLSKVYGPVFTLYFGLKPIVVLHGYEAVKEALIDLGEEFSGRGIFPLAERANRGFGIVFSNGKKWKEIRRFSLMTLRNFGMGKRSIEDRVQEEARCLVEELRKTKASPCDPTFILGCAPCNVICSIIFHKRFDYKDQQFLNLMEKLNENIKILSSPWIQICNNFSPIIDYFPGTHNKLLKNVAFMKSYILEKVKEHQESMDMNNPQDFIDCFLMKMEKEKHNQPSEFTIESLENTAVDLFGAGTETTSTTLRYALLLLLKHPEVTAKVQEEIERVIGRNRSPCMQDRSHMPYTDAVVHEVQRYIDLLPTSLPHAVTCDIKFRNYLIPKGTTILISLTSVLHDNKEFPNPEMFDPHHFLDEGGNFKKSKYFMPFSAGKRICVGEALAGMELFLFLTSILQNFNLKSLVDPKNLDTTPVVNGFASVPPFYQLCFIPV
Listing: AC50 of selected compounds

compound	AC50
Clc1ccc(/C=N/c2c(-c3ccc(Cl)cc3)nc3n2CCS3)cc1	10 µM (inconclusive)
O=C(Cn1nnc2ccccc21)N1CCCCC1	0.00562 µM (inconclusive)

Prompt: Bench note: what AC50 did `O=C(c1ccncc1)N1CCC2(CC1)CN(c1ccncc1)C2` show?
Completion: 31.6 µM (inconclusive)

Prompt: Bench note: what AC50 did CC(NC(=O)Cn1cnc([N+](=O)[O-])n1)c1ccccc1 (stereo not given) show?
Completion: 35.5 µM (inconclusive)

Prompt: Bench note: what AC50 did `CCOC(=O)C1CCN(c2c(NCc3ccc(C(=O)NCCC(C)C)cc3)c(=O)c2=O)CC1` show?
Completion: 7.94 µM (inconclusive)

###

biological target: Aminopeptidase N (Plasmodium falciparum FcB1/Columbia); assay: malaria alanyl aminopeptidase activity blockers – biochemical, fluorogenic H-Leu-NHMec substrate, 1536-well (AID 1445); parameters: species or system Plasmodium falciparum 3D7, 3D7
Sequence (O96935 whole entry): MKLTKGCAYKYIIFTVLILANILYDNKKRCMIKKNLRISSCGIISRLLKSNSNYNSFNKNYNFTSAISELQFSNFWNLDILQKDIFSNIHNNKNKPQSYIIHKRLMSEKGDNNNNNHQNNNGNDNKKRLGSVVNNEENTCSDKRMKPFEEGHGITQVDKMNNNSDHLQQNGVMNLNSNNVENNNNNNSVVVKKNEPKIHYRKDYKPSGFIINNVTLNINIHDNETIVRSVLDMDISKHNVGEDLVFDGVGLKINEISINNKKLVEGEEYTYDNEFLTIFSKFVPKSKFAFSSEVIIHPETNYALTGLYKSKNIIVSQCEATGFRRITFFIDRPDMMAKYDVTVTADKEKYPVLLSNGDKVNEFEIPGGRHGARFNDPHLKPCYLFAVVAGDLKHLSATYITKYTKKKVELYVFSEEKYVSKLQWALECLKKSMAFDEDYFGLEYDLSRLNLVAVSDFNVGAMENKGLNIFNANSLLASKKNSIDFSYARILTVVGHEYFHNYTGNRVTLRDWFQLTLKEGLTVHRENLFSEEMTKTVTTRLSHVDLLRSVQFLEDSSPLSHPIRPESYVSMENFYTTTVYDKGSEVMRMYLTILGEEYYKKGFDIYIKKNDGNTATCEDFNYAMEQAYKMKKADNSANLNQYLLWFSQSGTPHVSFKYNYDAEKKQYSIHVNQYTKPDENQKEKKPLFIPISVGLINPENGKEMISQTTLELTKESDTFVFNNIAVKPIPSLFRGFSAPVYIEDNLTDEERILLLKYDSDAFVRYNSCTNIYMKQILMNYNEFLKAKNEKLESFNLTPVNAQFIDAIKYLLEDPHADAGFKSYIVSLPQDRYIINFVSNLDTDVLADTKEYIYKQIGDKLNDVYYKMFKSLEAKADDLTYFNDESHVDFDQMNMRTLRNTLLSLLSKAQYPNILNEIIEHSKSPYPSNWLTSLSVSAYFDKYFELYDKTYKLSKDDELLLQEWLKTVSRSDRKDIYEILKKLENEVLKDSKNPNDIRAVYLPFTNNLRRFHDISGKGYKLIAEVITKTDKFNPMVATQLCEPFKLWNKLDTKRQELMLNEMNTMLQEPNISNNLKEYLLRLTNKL
Activity calls are given as the source filed them.
value kind: IC50

For orientation, consider the following solved cases.
molecule	IC50
CCN(CC)c1ccc(/C=C2\C(=O)N(c3nnc(C)c(O)n3)N=C2C)cc1	42.6 µM (active)
CCOc1cc(/C=C(/C#N)c2nc3ccccc3[nH]2)ccc1OCc1ccc(C(=O)O)o1	60.8 µM (active)
CCOC(=O)CC1C(=O)NCCN1c1nc2ccc(C)cn2c(=O)c1/C=C1\SC(=S)N(C(C)CC)C1=O (stereo not given)	49.8 µM (active)

Prompt: Bench note: what IC50 did `COc1ccc(CN2C(=O)/C(=C\Nc3ccccc3C(=O)O)c3ccccc3C2=O)cc1` show?
Completion: 24.7 µM (active)

Prompt: Bench note: what IC50 did `N/C(=N\N=C/c1ccc(-c2ccc(O)c(C(=O)O)c2)o1)N[N+](=O)[O-]` show?
Completion: 10.2 µM (active)

###

Target: DNA repair protein RAD52 homolog (Homo sapiens)
Sequence (P43351 whole entry): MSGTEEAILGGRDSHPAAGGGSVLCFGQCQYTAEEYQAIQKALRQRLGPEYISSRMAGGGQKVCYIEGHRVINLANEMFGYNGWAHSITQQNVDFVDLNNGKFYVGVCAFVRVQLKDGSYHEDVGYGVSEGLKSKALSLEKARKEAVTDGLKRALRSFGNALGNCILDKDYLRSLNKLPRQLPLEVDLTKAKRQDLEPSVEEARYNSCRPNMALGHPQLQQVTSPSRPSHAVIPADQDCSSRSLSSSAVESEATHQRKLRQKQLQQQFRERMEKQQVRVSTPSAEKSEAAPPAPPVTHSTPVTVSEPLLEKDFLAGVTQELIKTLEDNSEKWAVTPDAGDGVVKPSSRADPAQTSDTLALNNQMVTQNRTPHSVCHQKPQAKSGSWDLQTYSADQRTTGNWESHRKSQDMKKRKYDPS
Assay type: functional, biochemical
The source made the active and inactive calls.
Listing: AC50 of selected compounds

compound	result
CNC(C)C(=O)NC(C(=O)N1CCCC1C(=O)Nc1ccc2[nH]ccc2c1)C(C)C (stereo not drawn)	7.54 µM (active)
CN1CCC[C@H]1CCNc1ccc2c(=O)c3ccccc3n(C)c2c1	2.17 µM (active)
COc1cc2c(cc1OC)C(c1ccccc1N)=NCC2	18.6 µM (active)
CN(C)CCCNc1c2ccccc2nc2ccccc12	0.271 µM (active)

Prompt: Lookup: AC50 / DNA repair protein RAD52 homolog (Homo sapiens) / `CN(C)CCNc1ccc(CO)c2oc3ccc(O)cc3c(=O)c12`
Completion: 2.51 µM (active)

Prompt: Lookup: AC50 / DNA repair protein RAD52 homolog (Homo sapiens) / `CCN(CC)CCN(C(=O)c1ccc(C(=O)c2ccccc2)cc1)c1nc2c(OC)cccc2s1`
Completion: 17.2 µM (active)

Prompt: Lookup: AC50 / DNA repair protein RAD52 homolog (Homo sapiens) / CC1CCCCN1CC(=O)Nc1ccc(N2CCCCCC2)cc1 (stereo not drawn)
Completion: 17.4 µM (active)

Prompt: Lookup: AC50 / DNA repair protein RAD52 homolog (Homo sapiens) / CCCCCCCCCCCC1NC(N)=NC(CCCO)=C1C(=O)OC (stereo not drawn)
Completion: 7.72 µM (active)

###

molecular target: Cytochrome P450 2D6 (Homo sapiens, UniProt P10635);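 also: CYP2D6 member of a cytochrome P450 panel assay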
Sequence (P10635 whole entry): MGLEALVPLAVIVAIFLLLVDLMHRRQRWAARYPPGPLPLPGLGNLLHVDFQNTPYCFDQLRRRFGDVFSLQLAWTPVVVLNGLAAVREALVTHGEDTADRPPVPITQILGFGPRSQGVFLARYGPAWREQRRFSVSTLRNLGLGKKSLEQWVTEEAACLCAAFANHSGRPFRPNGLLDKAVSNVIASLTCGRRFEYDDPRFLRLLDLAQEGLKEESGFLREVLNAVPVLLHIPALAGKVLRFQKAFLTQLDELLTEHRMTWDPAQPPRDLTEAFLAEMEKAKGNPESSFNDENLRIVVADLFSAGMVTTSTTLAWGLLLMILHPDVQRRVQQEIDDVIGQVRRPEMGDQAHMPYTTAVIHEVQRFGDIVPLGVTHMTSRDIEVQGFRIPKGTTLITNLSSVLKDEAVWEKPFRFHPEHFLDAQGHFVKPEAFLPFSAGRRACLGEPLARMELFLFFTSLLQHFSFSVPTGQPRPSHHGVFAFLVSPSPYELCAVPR
value kind: AC50

molecule	tested system	value kind	result
CCOC(=O)NCN1C(=O)C2C3C=CC(C3)C2C1=O (centres undefined)	Cytochrome P450 2D6 (Homo sapiens, UniProt P10635)	AC50	inconclusive
CC(C)NC(=O)N1CCCC2(CCN(C(=O)c3cccc(F)c3)CC2)C1	Cytochrome P450 2D6 (Homo sapiens, UniProt P10635)	AC50	inconclusive
Cc1ccc(-c2nnn(CC(=O)N(c3ccccc3)C(C(=O)NCC3CCCO3)c3ccc(Cl)cc3)n2)cc1 (centres undefined)	Cytochrome P450 2D6 (Homo sapiens, UniProt P10635)	AC50	inconclusive

###

molecular target: Low molecular weight phosphotyrosine protein phosphatase (Homo sapiens, UniProt P24666); format: functional; details: read-out: IC50_Mean;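 also: Dose-response confirmation assay measuring inhibition of LMPTP enzyme activity by fluorescence intensity read-out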
Sequence (P24666 whole entry): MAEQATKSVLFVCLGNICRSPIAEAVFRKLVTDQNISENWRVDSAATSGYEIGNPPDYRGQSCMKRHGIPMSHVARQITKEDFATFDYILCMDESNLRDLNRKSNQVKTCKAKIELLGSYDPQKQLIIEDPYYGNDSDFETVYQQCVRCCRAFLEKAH
Activity calls are given as the source filed them.
value kind: IC50

For orientation, consider the following solved cases.
smiles	tested system	value kind	result
COc1ccc(-c2cnnc(N/N=C/c3ccc(-c4ccc([N+](=O)[O-])cc4)o3)n2)cc1	Low molecular weight phosphotyrosine protein phosphatase (Homo sapiens, UniProt P24666)	IC50	6.62 µM (active)
c1ccc(-c2nc(NCCCN3CCOCC3)c3ccccc3n2)cc1	Low molecular weight phosphotyrosine protein phosphatase (Homo sapiens, UniProt P24666)	IC50	17 µM (active)
COc1ccc(/N=c2\[nH]c(=O)c3cc([N+](=O)[O-])ccc3s2)cc1	Low molecular weight phosphotyrosine protein phosphatase (Homo sapiens, UniProt P24666)	IC50	13.4 µM (active)
CCn1cc(C(=O)O)c(=O)c2cc(F)c(N3CCN(C(=S)NC(=O)c4ccc(F)cc4)CC3)cc21	Low molecular weight phosphotyrosine protein phosphatase (Homo sapiens, UniProt P24666)	IC50	11.7 µM (active)
O=C(N=Nc1c(O)[nH]c2ccc([N+](=O)[O-])cc12)c1cc(-c2ccccc2Cl)nc2ccccc12	Low molecular weight phosphotyrosine protein phosphatase (Homo sapiens, UniProt P24666)	IC50	1.98 µM (active)

Prompt: Bench note: what IC50 did `O=C(Nc1cccc(-c2cn3ccccc3n2)c1)c1cc2ccccc2oc1=O` show?
Completion: 7.49 µM (active)

###

Molecular target: Protein RecA (Mycobacterium tuberculosis, UniProt P9WHJ3)
Sequence (P9WHJ3 whole entry): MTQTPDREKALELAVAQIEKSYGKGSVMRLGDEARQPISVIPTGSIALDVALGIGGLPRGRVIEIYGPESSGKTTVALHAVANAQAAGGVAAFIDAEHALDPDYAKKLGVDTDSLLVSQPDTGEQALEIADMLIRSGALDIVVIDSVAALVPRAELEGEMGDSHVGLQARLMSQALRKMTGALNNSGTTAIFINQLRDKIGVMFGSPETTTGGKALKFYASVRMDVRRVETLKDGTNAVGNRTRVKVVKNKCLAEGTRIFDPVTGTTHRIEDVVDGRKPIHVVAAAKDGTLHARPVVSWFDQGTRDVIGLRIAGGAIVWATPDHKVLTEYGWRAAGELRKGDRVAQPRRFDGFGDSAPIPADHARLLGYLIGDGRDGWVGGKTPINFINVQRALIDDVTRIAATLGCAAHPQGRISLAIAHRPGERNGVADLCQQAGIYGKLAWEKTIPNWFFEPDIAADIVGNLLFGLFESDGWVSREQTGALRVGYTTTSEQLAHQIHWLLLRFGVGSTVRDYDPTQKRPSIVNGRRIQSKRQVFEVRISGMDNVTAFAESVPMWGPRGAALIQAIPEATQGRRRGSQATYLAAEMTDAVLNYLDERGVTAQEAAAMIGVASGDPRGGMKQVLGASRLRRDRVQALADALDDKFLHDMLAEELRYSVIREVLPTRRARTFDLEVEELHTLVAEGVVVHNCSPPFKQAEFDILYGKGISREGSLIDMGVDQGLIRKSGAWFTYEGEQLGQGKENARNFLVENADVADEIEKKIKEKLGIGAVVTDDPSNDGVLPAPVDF
Test: Fluorescence Cell-Free Homogeneous Dose Retest to Identify Inhibitors of RecA-Intein Splicing Activity. [Related pubchem assays (depositor defined):AID2097, AID2223, AID489010, AID492950]
Format: functional
The source made the active and inactive calls.
Returns: one label drawn from TRUE = active, FALSE = inactive

Answered examples (5):
molecule	category
CCN(CC)c1ccc(/C=C2\C(=O)N(c3nnc(C)c(O)n3)N=C2C)cc1	TRUE
CN1CCN2c3ccc(N)cc3CC3(C(=O)NC(=O)NC3=O)C2C1 (centres undefined)	TRUE
CCc1ccc(NC(=O)CSc2ccc(-c3sc(C)nc3C)nn2)cc1	FALSE
O=C(CCCN1C(=O)/C(=C\c2cccs2)SC1=S)Nc1ccc(O)cc1	TRUE
CCCc1n[nH]c2c1C(c1ccc(OC(=O)c3ccco3)cc1)C(C#N)=C(N)O2 (centres undefined)	TRUE

Prompt: How was `CCOc1cc(/C=C2\C(=N)N3N=C(N4CCCCC4)SC3=NC2=O)ccc1OC(=O)c1ccco1` classified in this test?
Completion: TRUE
